- System: MS2 coat protein
- Assay summary: apparent KD of MS2 coat protein; higher = weaker reporter binding
- Applied conditions: Eterna round: R107; input ligand: tryptophan 2.4 mM
Short version: apparent KD of MS2 coat protein at least 0.03 µM is Y, less is N.

Sequence code: GCUGUAAGUGCAGAUACCAGCAAGUGAGGUUUCAUAUGACAUGAGGAUCACCCAUGUAUCUGCCCUUGGCAGCUGCACUUACAGC [#28 Same State - Theophylline B]
Qualitative label: N
--
Sequence code: GGUUGGUGUAGAGAUAUAUUGAUUACUGAAGGAGCGGGAAUAAACCCAGGUAGGUCGCAGAGAUCCACAUGAGGAUCACCCAUGU [!0.O]
Qualitative label: Y
--
Sequence code: UGGUGUAGGGUAAAUAGGAUUAGUACAGAAGGAGCGCGAAUAAACGCAGGUAGGUCGCUGGAAUAACAUGAGGAUCACCCAUGUC [Same State Arginine A GF 26]
Qualitative label: N
--
Sequence code: AGUAUCAGUGGAAGGAGCGUCGCGAAUGCCACAUGAGGAUCACCCAUGUCGCCUUGAGCGCGACAGGUAGGUCGCCACGGUAGGC [SS-ArgB3]
Qualitative label: Y
--
Sequence code: UUCGUUUACGGAAGGAGCGACGGACAUCGGUGAACGACGCACAUGAGGAUCACCCAUGUACGUCAGGUAGGUCGCCGUUAAGAGU [Somama]
Qualitative label: N

Moving on to the next sequence.
Confirm if apparent KD of MS2 coat protein reported for the sequence AGAGUCAGACAAAAGUCUGGCUCAACCGAAGGAGCGUCCGAAAGGACAGGUAGGUCGCGGUUACCUGAGGAUCACCCGGGUUCCU [ArgAS 9 #OpenEnded #AlternativeMS2] is 0.03 µM or above.
Y
